# Tested on: PDC 899932-113-R3-J6 complex spheroid viability
# experiment: Anticancer human tumor 899932-113-R3-J6-PDC patient-derived melanoma cell line growth inhibition [RAS]
# run parameters: second compound 0.003 µM; first compound 0.0316 µM; stronger effect = lower value
I'd appreciate it if you could supply viability, T/C values for the items below.

- compound: "CC(Nc1ccc2c(c1)OCCn1cc(N3C(=O)OCC3C(F)F)nc1-2)C(N)=O (centres undefined) + CCn1c(-c2cccnc2C(C)OC)c2c3cc(ccc31)N1CCOC(CC(NC(=O)C(C(C)C)N(C)C(=O)C3(F)CCN(C(=O)C#CC(C)(C)N(C)C)CC3)C(=O)N3CCCC(N3)C(=O)OCC(C)(C)C2)C1"
  viability, T/C: "90.1%"
- compound: "CC(Nc1ccc2c(c1)OCCn1cc(N3C(=O)OCC3C(F)F)nc1-2)C(N)=O (centres undefined) + CCn1c(-c2cc(N3CCN(C)CC3)cnc2C(C)OC)c2c3cc(ccc31)-c1csc(n1)CC(NC(=O)C1CC1C)C(=O)N1CCCC(N1)C(=O)OCC(C)(C)C2"
  viability, T/C: "26.1%"
- compound: "CCC(CC)c1cc(NC2CCC(N)C2)n2nccc2n1 (centres undefined) + CCn1c(-c2cc(N3CCN(C)CC3)cnc2C(C)OC)c2c3cc(ccc31)-c1csc(n1)CC(NC(=O)C1CC1C)C(=O)N1CCCC(N1)C(=O)OCC(C)(C)C2"
  viability, T/C: "28.8%"

Now for a further compound.
Sample CC(=O)OC12COC1CC(O)C1(C)C(=O)C(O)C3=C(C)C(OC(=O)C(O)C(NC(=O)OC(C)(C)C)c4ccccc4)CC(O)(C(OC(=O)c4ccccc4)C21)C3(C)C (centres undefined) + CCn1c(-c2cc(N3CCN(C)CC3)cnc2C(C)OC)c2c3cc(ccc31)-c1csc(n1)CC(NC(=O)C1CC1C)C(=O)N1CCCC(N1)C(=O)OCC(C)(C)C2 — what was its viability, T/C?
8.34%

###

# Test system: PDC 899932-113-R3-J6 complex spheroid viability
# experiment: Anticancer human tumor 899932-113-R3-J6-PDC cell line growth inhibition [RAS];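 also: spheroids exposed to agents for seven days before readout; 100% = DMSO vehicle control wells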
# run parameters: second compound 0.316 µM; first compound 1 µM; stronger effect = lower value
quantity kind: viability, T/C (%)
Numbers only, in %.

Consider the following illustrative entries.
- compound: "CCN1CCN(Cc2ccc(Nc3ncc(F)c(-c4cc(F)c5nc(C)n(C(C)C)c5c4)n3)nc2)CC1 + C=CC(=O)N1CCN(c2nc(OCC3CCCN3C)nc3c(F)c(-c4nc(N)cc(C)c4C(F)(F)F)c(Cl)cc23)C(C)C1"
  viability, T/C / %: 23.9
- compound: "Nc1ccn(C2OC(CO)C(O)C2(F)F)c(=O)n1 (stereo not given) + C=CC(=O)N1CCN(c2nc(OCC3CCCN3C)nc3c(F)c(-c4nc(N)cc(C)c4C(F)(F)F)c(Cl)cc23)C(C)C1"
  viability, T/C / %: 26.3
- compound: "C=CC(=O)Nc1cc(Nc2nccc(-c3cn(C)c4ccccc34)n2)c(OC)cc1N(C)CCN(C)C + C#Cc1c(F)ccc2cc(O)cc(-c3ncc4c(N5CC6CCC(C5)N6)nc(OCC56CCCN5CC(F)C6)nc4c3F)c12"
  viability, T/C / %: 104
- compound: "CC(C)NCC(C(=O)N1CCN(c2ncnc3c2C(C)CC3O)CC1)c1ccc(Cl)cc1 (stereo not given) + C=CC(=O)N1CCN(c2nc(OCC3CCCN3C)nc3c(F)c(-c4nc(N)cc(C)c4C(F)(F)F)c(Cl)cc23)C(C)C1"
  viability, T/C / %: 83.7

Now for a further compound.
Requested read-out viability, T/C, target or system PDC 899932-113-R3-J6 complex spheroid viability, entry NC1c2ccccc2OC12CCN(c1cnc3c(N4CCCc5ncccc54)n[nH]c3n1)CC2 (stereo not given) + C=CC(=O)N1CCN(c2nc(OCC3CCCN3C)nc3c(F)c(-c4nc(N)cc(C)c4C(F)(F)F)c(Cl)cc23)C(C)C1
111
